Assay: Clinical pharmacokinetics, plasma LC-MS/MS after single oral dose of AP capsules
Format: in vivo, human (healthy volunteers)
Settings: human, plasma, oral, 2000 mg, S3; 2.00 h; 2000 mg AP capsules; read-out: Plasma concentration
parameter: concentration at 2 h (ng/mL)
Report only the number, with the unit ng/mL understood.

Observe how each entry below is paired with its result.
compound	parameter	readout number
C=C1CC[C@@H]2[C@](C)(CO)[C@H](O)CC[C@@]2(C)[C@@H]1CCC1=CCOC1=O [14-deoxyandrographolide]	concentration at 2 h	3.06
C=C1CC[C@@H]2[C@](C)(CO)[C@H](O)CC[C@@]2(C)[C@@H]1C/C=C1/C(=O)OC[C@H]1O [andrographolide]	concentration at 2 h	4.19

Moving on to another compound below.
### Prompt Bench note: what concentration at 2 h did C=C1CC[C@@H]2[C@](C)(CO[C@@H]3O[C@H](CO)[C@@H](O)[C@H](O)[C@H]3O)CCC[C@@]2(C)[C@@H]1CCC1=CCOC1=O [neoandrographolide] show?
### Response 24.3

====

Assay: Clinical pharmacokinetics, plasma LC-MS/MS after single oral dose of AP capsules
Format: in vivo, human (healthy volunteers)
Settings: human, plasma, oral, 2000 mg, S5; 0.00 h; 2000 mg AP capsules; read-out: Plasma concentration
Recorded concentration at 0 h values for a group of compounds are listed next.
Field note: include the unit after the figure.

compound	concentration at 0 h
C=C1CC[C@@H]2[C@](C)(CO)[C@H](O)CC[C@@]2(C)[C@@H]1C/C=C1/C(=O)OC[C@H]1O [andrographolide]	0 ng/mL
C=C1CC[C@@H]2[C@](C)(CO[C@@H]3O[C@H](CO)[C@@H](O)[C@H](O)[C@H]3O)CCC[C@@]2(C)[C@@H]1CCC1=CCOC1=O [neoandrographolide]	0 ng/mL

Okay, next one:
### Prompt Bench note: what concentration at 0 h did C=C1CC[C@@H]2[C@](C)(CO)[C@H](O)CC[C@@]2(C)[C@@H]1CCC1=CCOC1=O [14-deoxyandrographolide] show?
### Response 0 ng/mL

====

Assay: Clinical pharmacokinetics, plasma LC-MS/MS after single oral dose of AP capsules
Type: in vivo, human (healthy volunteers)
Conditions: human, plasma, oral, 2000 mg, S3; 2.50 h; 2000 mg AP capsules; read-out: Plasma concentration
# concentration at 2.5 h values compiled below
# output: bare number, implied unit ng/mL

Recorded results for 2 compounds are shown here.
compound	uom	readout number
C=C1CC[C@@H]2[C@](C)(CO[C@@H]3O[C@H](CO)[C@@H](O)[C@H](O)[C@H]3O)CCC[C@@]2(C)[C@@H]1CCC1=CCOC1=O [neoandrographolide]	ng/mL	13.1
C=C1CC[C@@H]2[C@](C)(CO)[C@H](O)CC[C@@]2(C)[C@@H]1CCC1=CCOC1=O [14-deoxyandrographolide]	ng/mL	2.52

Query compound follows.
### Prompt I am curious: what concentration at 2.5 h value has been reported for C=C1CC[C@@H]2[C@](C)(CO)[C@H](O)CC[C@@]2(C)[C@@H]1C/C=C1/C(=O)OC[C@H]1O [andrographolide] ?
### Response 3.47

====

Test: Clinical pharmacokinetics, plasma LC-MS/MS after single oral dose of AP capsules
Type: in vivo, human (healthy volunteers)
Conditions: human, plasma, oral, 2000 mg, S1; 24.00 h; 2000 mg AP capsules; read-out: Plasma concentration
Method: The protocol was published (Tee et al. [2022]). Seven calibrators ranging from 1, 2, 5,10, 20, 50, and 100 ng mL^−1 were prepared. […] Pharmacokinetic parameters were determined from plasma samples (5 subjects, 15 time points) analyzed via LC–MS/MS (Shimadzu 8060NX). […]
parameter: concentration at 24 h

compound	concentration at 24 h
C=C1CC[C@@H]2[C@](C)(CO)[C@H](O)CC[C@@]2(C)[C@@H]1CCC1=CCOC1=O [14-deoxyandrographolide]	0 ng/mL
C=C1CC[C@@H]2[C@](C)(CO)[C@H](O)CC[C@@]2(C)[C@@H]1C/C=C1/C(=O)OC[C@H]1O [andrographolide]	0 ng/mL

Moving on to the next compound.
### Prompt Could you share which concentration at 24 h value was measured for C=C1CC[C@@H]2[C@](C)(CO[C@@H]3O[C@H](CO)[C@@H](O)[C@H](O)[C@H]3O)CCC[C@@]2(C)[C@@H]1CCC1=CCOC1=O [neoandrographolide] ?
### Response 0 ng/mL

Attribution: paper PMC12935787
